molecular target: Nitric oxide synthase, inducible (Homo sapiens); experiment: Inhibition of human iNOS expressed in human DLD1 cells after 1 hr; type: cell-based, DLD-1
Assay readout: IC50

| Smiles | Target | Assay readout | Test value |
| --- | --- | --- | --- |
| CC(C)CN(Cc1cc(Cl)ccc1C#N)[C@H]1CCCN(C)C1 | Nitric oxide synthase, inducible (Homo sapiens) | IC50 | 720 nM |
| CCCCN1CCC(N(C)Cc2cc(Cl)ccc2C#N)CC1 | Nitric oxide synthase, inducible (Homo sapiens) | IC50 | 340 nM |
| COc1ccc(C#N)c(CN(C)C2CCN(C)CC2)c1 | Nitric oxide synthase, inducible (Homo sapiens) | IC50 | 5100 nM |
| CCCCN(Cc1cc(Cl)ccc1C#N)C1CCNCC1 | Nitric oxide synthase, inducible (Homo sapiens) | IC50 | 570 nM |
| CC(=N)NCCSCC[C@H](N)C(=O)O | Nitric oxide synthase, inducible (Homo sapiens) | IC50 | 220 nM |
| CC(C)N(Cc1cc(Cl)ccc1C#N)C1CCNCC1 | Nitric oxide synthase, inducible (Homo sapiens) | IC50 | 32 nM |
| CC(C)CN(Cc1cc(Cl)ccc1C#N)C1CCNCC1 | Nitric oxide synthase, inducible (Homo sapiens) | IC50 | 390 nM |
| N#Cc1ccc(Cl)cc1CN(c1ccccc1)C1CCNCC1 | Nitric oxide synthase, inducible (Homo sapiens) | IC50 | 660 nM |
| CN1CCC(N(C)Cc2cc(Cl)ccc2[N+](=O)[O-])CC1 | Nitric oxide synthase, inducible (Homo sapiens) | IC50 | 90 nM |

---

biological target: Nitric oxide synthase, inducible (Homo sapiens, UniProt P35228); assay: Inhibition of cytokine-induced iNOS activity in human DLD1 cells after 24 hrs; format: cell-based, DLD-1
Sequence (P35228 whole entry): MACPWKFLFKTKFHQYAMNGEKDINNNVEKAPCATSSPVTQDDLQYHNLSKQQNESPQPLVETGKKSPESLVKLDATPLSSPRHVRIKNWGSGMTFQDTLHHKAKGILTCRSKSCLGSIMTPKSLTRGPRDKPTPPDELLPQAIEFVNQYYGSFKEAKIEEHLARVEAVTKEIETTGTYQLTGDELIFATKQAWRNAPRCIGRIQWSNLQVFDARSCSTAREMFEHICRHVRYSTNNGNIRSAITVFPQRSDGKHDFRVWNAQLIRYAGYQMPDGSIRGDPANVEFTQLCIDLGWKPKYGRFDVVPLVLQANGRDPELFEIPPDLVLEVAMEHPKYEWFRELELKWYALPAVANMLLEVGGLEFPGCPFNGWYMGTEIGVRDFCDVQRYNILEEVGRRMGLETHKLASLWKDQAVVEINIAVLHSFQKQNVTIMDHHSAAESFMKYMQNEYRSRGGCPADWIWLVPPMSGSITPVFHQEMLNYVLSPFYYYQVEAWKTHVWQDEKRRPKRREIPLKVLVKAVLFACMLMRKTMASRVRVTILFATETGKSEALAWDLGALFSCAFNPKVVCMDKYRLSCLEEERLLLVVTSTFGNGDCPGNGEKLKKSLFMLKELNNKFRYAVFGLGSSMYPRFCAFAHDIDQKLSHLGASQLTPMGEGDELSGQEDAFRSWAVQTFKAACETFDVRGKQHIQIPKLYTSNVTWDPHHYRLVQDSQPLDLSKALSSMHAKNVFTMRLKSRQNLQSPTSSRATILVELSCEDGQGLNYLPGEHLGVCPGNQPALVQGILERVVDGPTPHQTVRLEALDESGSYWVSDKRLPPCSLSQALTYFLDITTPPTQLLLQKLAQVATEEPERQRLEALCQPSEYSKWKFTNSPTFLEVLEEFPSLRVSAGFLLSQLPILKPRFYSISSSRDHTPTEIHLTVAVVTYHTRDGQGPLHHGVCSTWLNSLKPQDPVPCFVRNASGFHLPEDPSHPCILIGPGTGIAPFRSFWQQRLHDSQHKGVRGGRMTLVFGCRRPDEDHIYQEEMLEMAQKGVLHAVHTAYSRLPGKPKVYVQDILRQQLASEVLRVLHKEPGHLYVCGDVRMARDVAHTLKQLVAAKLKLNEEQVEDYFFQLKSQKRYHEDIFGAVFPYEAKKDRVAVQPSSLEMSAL
Measured IC50 accompanies every entry in the list below.

| Smiles | IC50 |
| --- | --- |
| CCN1CCC(N(C)Cc2cc(Cl)ccc2C#N)CC1 | 4.5 µM |
| N#Cc1ccc(Cl)cc1CN(C1CCCC1)C1CCNCC1 | 6.7 µM |
| CN1CCC(N(C)Cc2cc(Cl)ccc2[N+](=O)[O-])CC1 | 1.1 µM |
| CN(Cc1cc(Cl)ccc1C#N)C1CCN(Cc2ccccc2)CC1 | 3.5 µM |
| CN1CCC(N(C)Cc2cc(Cl)ccc2C#N)CC1 | 3.7 µM |
| CC(C)CN(Cc1cc(Cl)ccc1C#N)C1CCNCC1 | 0.57 µM |
| CN(Cc1cc(Cl)ccc1C#N)C1CCN(CCc2ccccc2)CC1 | 3.3 µM |
| CN1CCC(N(C)Cc2cc(Br)ccc2C#N)CC1 | 3.7 µM |
| CC(C)CN1CCC(N(C)Cc2cc(Cl)ccc2C#N)CC1 | 3.2 µM |
